Source of measurements: patent US8765779B2

# reported Ki; entries follow
Biological target: human 5-HT6 receptor (Homo sapiens)
Construct: host or cells: CHO-K1 cells, stably transfected; membranes prepared in house
Sequence (P50406 whole entry): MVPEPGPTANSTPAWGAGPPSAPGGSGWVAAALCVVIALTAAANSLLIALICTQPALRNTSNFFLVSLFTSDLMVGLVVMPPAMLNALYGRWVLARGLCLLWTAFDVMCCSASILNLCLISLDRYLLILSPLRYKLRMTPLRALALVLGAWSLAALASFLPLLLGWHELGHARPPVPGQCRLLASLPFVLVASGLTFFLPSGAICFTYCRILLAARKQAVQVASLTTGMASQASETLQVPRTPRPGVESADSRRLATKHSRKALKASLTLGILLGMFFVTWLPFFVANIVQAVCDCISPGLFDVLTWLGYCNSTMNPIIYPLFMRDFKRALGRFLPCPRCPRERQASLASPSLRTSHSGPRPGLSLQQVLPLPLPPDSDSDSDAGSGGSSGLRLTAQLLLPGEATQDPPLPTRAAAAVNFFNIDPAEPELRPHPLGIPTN
Test: Human 5-HT6 Receptor Binding Assay ([3H]LSD displacement, scintillation beads)
Settings: membranes of CHO-K1 cells with recombinant human 5-HT6, 4 nM [3H]LSD; Table 1, class symbols; read-out: h5-HT6 (Ki)

Past entries and their recorded results:
[[record]]
compound = "O=S(=O)(c1cccc(OCc2ccccc2)c1)c1ccc2c(c1)OC1CNCCC21 (stereo not shown) [Example 74]"
readoutname = "Ki"
experimentalvalue = "< 500 nM"

[[record]]
compound = "COc1ccc(S(=O)(=O)c2ccc3oc4c(c3c2)CCNC4C)cc1F (stereo not shown) [Example 285]"
readoutname = "Ki"
experimentalvalue = "> 1000 nM"


Please give the measured Ki for this compound: O=S(=O)(c1cccc(F)c1)c1ccc2c3c(oc2c1)C(C(F)F)NCC3 (stereo not shown) [Example 509]
< 500 nM

Quick one: O=S(=O)(c1ccc2c(c1)C1CCNCC1O2)c1cccc(Cl)c1Cl (stereo not shown) [Example 176]
< 500 nM
